System: COLO 205 colon
Experiment: NCI tumour cell line growth inhibition, 48 h
MEASUREMENT LABEL: TGI

Here are 5 molecules together with their reported answers.
| MOLECULE | STUDY SYSTEM | TGI |
| --- | --- | --- |
| N#Cc1nc2ccccc2nc1N1CCN(c2ccc([N+](=O)[O-])cc2)CC1 | COLO 205 colon | > 100 µM |
| CC1(C)CC(=O)c2[nH]c3ccccc3c2CC(=O)NCCc2cn1cn2 | COLO 205 colon | > 100 µM |
| S=C1NC2(CCCCCC2)NN1c1ccccc1 | COLO 205 colon | 0.431 µM |
| CC1=NNC(=O)C2CCC(=O)N12 (stereo unspecified) | COLO 205 colon | > 100 µM |
| COc1ccc(N2C(=O)C(=O)N(c3ccccc3[N+](=O)[O-])C2=S)cc1 | COLO 205 colon | 44.4 µM |

In: Item under review: COc1cc2nc(-c3ccc(Cl)cc3)cc(OCCCN3CCCCC3)c2cc1OC . Reported TGI?
Out: > 100 µM

In: Item under review: O=C(Nc1nc2ccc(C(F)(F)F)cc2s1)c1cc(Cl)ccc1O . Reported TGI?
Out: 4 µM

In: Item under review: Cc1cc(C)n2nc3nc(N)c(C#N)c(-c4ccccc4)c3c2n1 . Reported TGI?
Out: > 100 µM

In: Item under review: COC(=O)C1=C(O)c2cc(OC)c(OC)cc2C(c2ccc(OC)c(OC)c2)C1 (stereo unspecified) . Reported TGI?
Out: > 100 µM

In: Item under review: CCn1c(-c2nonc2N)nc2c(C#CC(C)(C)O)nc(OC[C@H](N)c3ccccc3)cc21 . Reported TGI?
Out: 7 µM

In: Item under review: N#CC(N)(C(=O)CCC(=O)Nc1cccc(Cl)c1)c1ccc(Cl)cc1 (stereo unspecified) . Reported TGI?
Out: > 100 µM
